molecular target: S441A TMPRSS2 ectodomain, soluble (human, UniProt O15393, S441A); assay: BLI
Sequence (O15393 106-492 S441A): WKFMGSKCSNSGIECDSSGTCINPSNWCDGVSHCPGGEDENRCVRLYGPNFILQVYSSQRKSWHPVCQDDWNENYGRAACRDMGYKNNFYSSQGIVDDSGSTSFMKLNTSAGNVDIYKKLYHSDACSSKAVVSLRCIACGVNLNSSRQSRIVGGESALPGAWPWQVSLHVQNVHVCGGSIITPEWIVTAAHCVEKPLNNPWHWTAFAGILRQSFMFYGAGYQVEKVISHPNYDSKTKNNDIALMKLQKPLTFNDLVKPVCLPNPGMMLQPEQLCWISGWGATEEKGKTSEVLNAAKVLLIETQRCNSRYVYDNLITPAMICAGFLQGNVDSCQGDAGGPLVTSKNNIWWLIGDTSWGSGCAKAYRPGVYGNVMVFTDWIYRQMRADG
Listed here are binders together with their documented log10(koff).
reported-metric: log10(koff) (log10 of the value in s⁻¹)

{"binder": "anti-TMPRSS2 nanobody VHH-C11 (VHH) VHH: QVQLVESGGGLVQPGGSLRLSCAASGFTLDYYDIYWFRQAPGKEREGVSSITTSGGRTNYADSVKGRFTISRDNAKNTVYLQMNSLKPEDTAVYYCAAKVGGRRNWIAPLNGYENALWGKGTLVTVSS", "recorded-number": -3.64}
{"binder": "anti-TMPRSS2 nanobody VHH-A01 (VHH) VHH: QVQLVESGGGLVQPGGSLRLSCVVSGFSLDYYAIGWFRQAPGKEREGVSCIGSSGDKTNYADSVKGRFTISRDNAKNTVYLQMNSLKPEDTAVYYCAAESALYSDCTEEQNPMLYDYWGQGTQVTVSS", "recorded-number": -4.29}
{"binder": "anti-TMPRSS2 nanobody VHH-F05 (VHH) VHH: EVQLVESGGGLVQPGGSLRLSCAASGFTLDYYAIGWFRQAPGKEREGVSCISSSGDSIKYVDSVKGRFTISRDNAKNTVYLQMNSLKPEDTAVYQCAADALGSGCLTGNYDYWGQGTRVTVSS", "recorded-number": -3.72}
{"binder": "anti-TMPRSS2 nanobody VHH-A07 (VHH) VHH: QVQLVESGGGLVQPGGSLRLSCTSSGSPLEHYDIIWFRQAPGREREGVSSITTSGGHTNYADSVKDRFTISRDNAKNVVYLQMNSLKPEDTAVYYCAGRVGGRRNWIVPLDGYDNAYWGQGTQVTVSS", "recorded-number": -2.96}
{"binder": "anti-TMPRSS2 nanobody VHH-D01 (VHH) VHH: EVQLVESGGGLVQPGGPLRLSCASSGSTLEHYDIGWFRQVPGGLREGVSSITASGGRTNYADSVKGRFTISRDNGKNAVYLQMNSLKPEDTAVYYCAGKIGGRRNWVAPLDGFENAYWGQGTQVTVSS", "recorded-number": -3.32}
